Target: T1, His-tagged ILT4 protein extracellular domain: ILT4-His (human, UniProt Q8N423 22-460)
T1 construct: Expressed in 293 cells; also called human ILT4-His protein
T1 sequence (Q8N423 other isoform, or with tags, fused parts or gaps limits assumed): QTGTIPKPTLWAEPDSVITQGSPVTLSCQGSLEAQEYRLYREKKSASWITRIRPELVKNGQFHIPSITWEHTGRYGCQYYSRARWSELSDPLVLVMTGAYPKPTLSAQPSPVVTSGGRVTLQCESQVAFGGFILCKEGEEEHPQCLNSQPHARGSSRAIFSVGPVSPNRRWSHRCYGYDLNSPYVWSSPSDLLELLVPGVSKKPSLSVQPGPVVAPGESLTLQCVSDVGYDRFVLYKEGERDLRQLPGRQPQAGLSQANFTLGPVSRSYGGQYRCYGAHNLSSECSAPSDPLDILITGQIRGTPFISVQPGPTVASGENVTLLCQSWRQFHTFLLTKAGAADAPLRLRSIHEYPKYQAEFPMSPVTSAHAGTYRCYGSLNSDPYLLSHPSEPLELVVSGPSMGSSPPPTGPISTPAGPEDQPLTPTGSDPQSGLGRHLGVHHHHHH
Assay: ELISA, coated ILT4-His 1 µg/mL; Assay 5
Item-by-item account of EC50

| binder | EC50 / µg/mL |
| --- | --- |
| chimeric antibody ChP2-C2 (antibody, human IgG4 S228P, kappa, F234A L235A, V domains shown, Murine variable regions with hIgG4(LALA) and CL constant regions; also called M P2-C2) VH: QVQLKQSGPGLVQPSQSLSITCTVSGFSLTSYGVHWVRQSPGKGLEWLGVIWSGGHTDLNAAFISRLSINKDNSKSQVFFKMNSLQGDDTAIYYCARNGYGGCLDYWGQGTTLTVSS VL: DIVMTQSHKFMSTSVGDRVSITCKAGQDVSIAVAWYQQKPGQSPQLLIYSASYRYTGVPDRFTGSGSGTDFTFAISSVQAEDLAVYYCQQYYSIPPSFGAGTKLEIKR | 0.0493 |
| positive control antibody JTX (sequences from WO2019126514A2) (antibody, human IgG4 S228P, kappa, V domains shown, also called JTX-8064) VH: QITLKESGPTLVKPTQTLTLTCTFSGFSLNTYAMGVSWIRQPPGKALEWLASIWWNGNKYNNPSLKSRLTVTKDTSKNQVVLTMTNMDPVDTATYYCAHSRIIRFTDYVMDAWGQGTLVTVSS VL: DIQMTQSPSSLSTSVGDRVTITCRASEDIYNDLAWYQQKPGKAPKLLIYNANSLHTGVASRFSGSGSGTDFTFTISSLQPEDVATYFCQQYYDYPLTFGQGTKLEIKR | 0.0801 |
| chimeric antibody ChP2-E10 (antibody, human IgG4 S228P, kappa, F234A L235A, V domains shown, Murine variable regions with hIgG4(LALA) and CL constant regions; also called M P2-E10) VH: DVQLQESGPGLVKPSQSLSLTCSVTGYSITSGYYWNWIRQFPGNKLEWMGYMSYEGTNNSNPSLKNRISITRDTSKNQFFLKLNSVTTEDTARYYCARERAYYYGTLGAMDYWGQGTSVTVSS VL: DIQMTQSPASLSVSVGETVTITCRASENIYSNLAWYQQKQGKSPQLLVYAATNLADGVPSRFSGSGSGTQYSLKINSMQSEDFGSYYCQHFWDTPFTFGSGTKLEIKR | 0.0658 |
| chimeric antibody ChP2-B9 (antibody, human IgG4 S228P, kappa, F234A L235A, V domains shown, Murine variable regions with hIgG4(LALA) and CL constant regions; also called M P2-B9) VH: EVQLQQSGPELVKPGASVKISCKASGYTFTDYFMNWVKLSHGKSLEWIGDINPNNGGTSYNQRFKDKVTLTVDKSSSTAYMELRSLTSDSSAVYFCARNGYYDSNYLSYFDVWGTGTTVTVSS VL: DIQMTQSPASLSVSVGETVTITCRASENIYSNLAWYQQKQGKSPQLLVYGATNLADGVPSRFSGSGSGTQYSLKINSLQSEDFGSYYCQHFWDTPYTFGGGTKLEIKR | 0.0487 |
